# Target: Mitogen-activated protein kinase 3 (Homo sapiens, UniProt P27361)
# Assay name: Inhibition of N-terminal FLAG-tagged ERK1 (unknown origin) expressed in baculovirus expression system incubated for 5 mins prior to [gamma-33P]ATP addition measured after 60 mins by scintillation counting analysis
Reported metric: IC50

Molecule smiles: O=C(NCCO)C1=Cc2c(ncnc2Nc2ccc(Oc3cccc4sccc34)c(Cl)c2)NCC1
Reported metric: IC50
Recorded measurement: > 10 µM

* * *

# Target: Glycogen synthase kinase-3 beta (Homo sapiens, UniProt P49841)

Molecule smiles: O=C(NCCO)C1=Cc2c(ncnc2Nc2ccc(Oc3cccc4sccc34)c(Cl)c2)NCC1
IC50: > 10 µM

* * *

# Target: Protein kinase C theta type (Homo sapiens, UniProt Q04759)
# Sequence (Q04759 whole entry): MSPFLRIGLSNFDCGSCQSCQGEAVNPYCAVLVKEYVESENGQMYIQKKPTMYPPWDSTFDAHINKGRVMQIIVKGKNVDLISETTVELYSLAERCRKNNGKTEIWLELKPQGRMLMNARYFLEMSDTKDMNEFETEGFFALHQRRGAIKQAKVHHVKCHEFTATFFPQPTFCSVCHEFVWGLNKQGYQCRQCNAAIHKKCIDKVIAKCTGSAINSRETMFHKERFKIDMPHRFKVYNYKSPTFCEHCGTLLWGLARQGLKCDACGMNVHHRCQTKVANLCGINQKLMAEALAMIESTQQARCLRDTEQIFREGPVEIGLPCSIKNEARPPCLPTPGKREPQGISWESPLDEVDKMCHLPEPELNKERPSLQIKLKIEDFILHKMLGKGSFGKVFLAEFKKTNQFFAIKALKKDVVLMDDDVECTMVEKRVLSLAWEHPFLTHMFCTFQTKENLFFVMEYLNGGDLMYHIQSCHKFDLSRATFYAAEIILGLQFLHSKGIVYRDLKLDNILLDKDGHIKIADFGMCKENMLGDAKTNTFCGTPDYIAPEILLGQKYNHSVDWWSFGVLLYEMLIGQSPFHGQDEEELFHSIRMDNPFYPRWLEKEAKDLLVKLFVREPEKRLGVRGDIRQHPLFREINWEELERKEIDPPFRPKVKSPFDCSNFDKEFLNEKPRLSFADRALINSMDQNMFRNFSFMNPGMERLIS
pIC50: −log10 of the molar value.
Reported metric: pIC50

Molecule smiles: O=C(NCCO)C1=Cc2c(ncnc2Nc2ccc(Oc3cccc4sccc34)c(Cl)c2)NCC1
Target: Protein kinase C theta type (Homo sapiens, UniProt Q04759)
Recorded measurement: < 5.00

* * *

The reader will find pIC50 measurements below, all made with Epidermal growth factor receptor (Homo sapiens, UniProt P00533).
Sequence (P00533 whole entry): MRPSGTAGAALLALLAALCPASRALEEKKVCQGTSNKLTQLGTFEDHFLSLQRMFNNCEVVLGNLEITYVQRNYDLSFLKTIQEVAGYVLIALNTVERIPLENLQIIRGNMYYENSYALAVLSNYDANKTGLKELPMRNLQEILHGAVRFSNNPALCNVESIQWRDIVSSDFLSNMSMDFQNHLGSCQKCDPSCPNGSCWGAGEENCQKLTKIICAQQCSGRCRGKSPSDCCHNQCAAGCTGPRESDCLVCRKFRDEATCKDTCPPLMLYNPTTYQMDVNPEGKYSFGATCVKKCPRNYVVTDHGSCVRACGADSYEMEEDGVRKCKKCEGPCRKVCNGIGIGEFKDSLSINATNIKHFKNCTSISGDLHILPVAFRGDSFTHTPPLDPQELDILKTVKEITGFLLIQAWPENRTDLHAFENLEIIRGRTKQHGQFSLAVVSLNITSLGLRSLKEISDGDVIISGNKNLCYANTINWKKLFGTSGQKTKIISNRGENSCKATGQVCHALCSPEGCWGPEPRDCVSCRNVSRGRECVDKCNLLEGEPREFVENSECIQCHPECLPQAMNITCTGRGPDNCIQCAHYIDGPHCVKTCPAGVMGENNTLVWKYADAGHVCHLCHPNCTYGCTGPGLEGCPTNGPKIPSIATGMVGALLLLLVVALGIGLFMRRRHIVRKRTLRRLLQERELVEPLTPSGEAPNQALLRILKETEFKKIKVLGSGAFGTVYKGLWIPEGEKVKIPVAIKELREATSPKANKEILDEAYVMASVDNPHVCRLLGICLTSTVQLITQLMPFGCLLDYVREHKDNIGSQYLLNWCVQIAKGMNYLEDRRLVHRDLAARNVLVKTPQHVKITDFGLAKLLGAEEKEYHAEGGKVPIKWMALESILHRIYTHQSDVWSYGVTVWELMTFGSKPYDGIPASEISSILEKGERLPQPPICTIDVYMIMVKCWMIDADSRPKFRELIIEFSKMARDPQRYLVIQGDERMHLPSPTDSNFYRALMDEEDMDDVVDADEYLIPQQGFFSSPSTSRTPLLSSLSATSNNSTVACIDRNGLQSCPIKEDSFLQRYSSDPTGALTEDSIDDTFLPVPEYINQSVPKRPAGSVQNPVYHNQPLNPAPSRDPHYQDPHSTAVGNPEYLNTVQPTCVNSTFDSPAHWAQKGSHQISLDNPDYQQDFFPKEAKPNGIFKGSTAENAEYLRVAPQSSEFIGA
pIC50: −log10 of the molar value.

Molecule smiles: COC(=O)C1=Cc2c(ncnc2Nc2ccc(Oc3cccc(C(F)(F)F)c3)c(Cl)c2)NCC1
pIC50: 6.96

Molecule smiles: O=C(NCCO)C1=Cc2c(ncnc2Nc2ccc(Oc3cccc(C(F)(F)F)c3)c(Cl)c2)NCC1
pIC50: 7.42

* * *

# Target: Hepatocyte growth factor receptor (Homo sapiens, UniProt P08581)

Molecule smiles: O=C(NCCO)C1=Cc2c(ncnc2Nc2ccc(Oc3cccc4sccc34)c(Cl)c2)NCC1
Target: Hepatocyte growth factor receptor (Homo sapiens, UniProt P08581)
U: µM
IC50: 5.6

* * *

# Target: Dual specificity protein kinase TTK (Homo sapiens, UniProt P33981)
# Sequence (P33981 whole entry): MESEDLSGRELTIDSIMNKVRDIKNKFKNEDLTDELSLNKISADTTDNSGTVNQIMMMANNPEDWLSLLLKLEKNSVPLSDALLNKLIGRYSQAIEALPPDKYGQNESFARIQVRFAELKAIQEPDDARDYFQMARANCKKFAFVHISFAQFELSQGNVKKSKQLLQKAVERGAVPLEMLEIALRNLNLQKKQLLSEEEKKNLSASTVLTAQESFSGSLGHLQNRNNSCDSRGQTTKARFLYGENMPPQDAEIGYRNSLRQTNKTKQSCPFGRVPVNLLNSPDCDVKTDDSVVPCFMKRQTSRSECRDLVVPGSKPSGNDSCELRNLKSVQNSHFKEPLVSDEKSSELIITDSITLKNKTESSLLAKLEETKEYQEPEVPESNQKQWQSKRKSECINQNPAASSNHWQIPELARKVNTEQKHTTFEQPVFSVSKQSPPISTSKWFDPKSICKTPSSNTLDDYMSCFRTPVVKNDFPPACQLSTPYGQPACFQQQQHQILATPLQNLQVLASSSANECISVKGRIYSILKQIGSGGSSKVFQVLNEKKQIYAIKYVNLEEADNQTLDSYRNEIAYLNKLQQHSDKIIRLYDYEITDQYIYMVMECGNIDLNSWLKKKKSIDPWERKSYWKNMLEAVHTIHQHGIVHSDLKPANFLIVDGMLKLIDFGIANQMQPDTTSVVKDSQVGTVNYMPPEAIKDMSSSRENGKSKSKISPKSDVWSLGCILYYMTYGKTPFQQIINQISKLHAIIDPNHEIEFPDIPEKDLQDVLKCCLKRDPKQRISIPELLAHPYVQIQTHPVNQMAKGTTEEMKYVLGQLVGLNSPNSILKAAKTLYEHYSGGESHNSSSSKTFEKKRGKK

Molecule smiles: O=C(NCCO)C1=Cc2c(ncnc2Nc2ccc(Oc3cccc4sccc34)c(Cl)c2)NCC1
Target: Dual specificity protein kinase TTK (Homo sapiens, UniProt P33981)
IC50: > 10 µM

* * *

# Target: Tyrosine-protein kinase Lyn (Homo sapiens, UniProt P07948)
# Assay name: Inhibition of LYNB (unknown origin) incubated for 5 mins prior to ATP addition measured after 10 mins by Alphascreen assay

Molecule smiles: O=C(NCCO)C1=Cc2c(ncnc2Nc2ccc(Oc3cccc4sccc34)c(Cl)c2)NCC1
IC50: 3 µM

* * *

Parameter pIC50, tested on Receptor tyrosine-protein kinase erbB-2 (Homo sapiens, UniProt P04626), listed per item.
Sequence (P04626 whole entry): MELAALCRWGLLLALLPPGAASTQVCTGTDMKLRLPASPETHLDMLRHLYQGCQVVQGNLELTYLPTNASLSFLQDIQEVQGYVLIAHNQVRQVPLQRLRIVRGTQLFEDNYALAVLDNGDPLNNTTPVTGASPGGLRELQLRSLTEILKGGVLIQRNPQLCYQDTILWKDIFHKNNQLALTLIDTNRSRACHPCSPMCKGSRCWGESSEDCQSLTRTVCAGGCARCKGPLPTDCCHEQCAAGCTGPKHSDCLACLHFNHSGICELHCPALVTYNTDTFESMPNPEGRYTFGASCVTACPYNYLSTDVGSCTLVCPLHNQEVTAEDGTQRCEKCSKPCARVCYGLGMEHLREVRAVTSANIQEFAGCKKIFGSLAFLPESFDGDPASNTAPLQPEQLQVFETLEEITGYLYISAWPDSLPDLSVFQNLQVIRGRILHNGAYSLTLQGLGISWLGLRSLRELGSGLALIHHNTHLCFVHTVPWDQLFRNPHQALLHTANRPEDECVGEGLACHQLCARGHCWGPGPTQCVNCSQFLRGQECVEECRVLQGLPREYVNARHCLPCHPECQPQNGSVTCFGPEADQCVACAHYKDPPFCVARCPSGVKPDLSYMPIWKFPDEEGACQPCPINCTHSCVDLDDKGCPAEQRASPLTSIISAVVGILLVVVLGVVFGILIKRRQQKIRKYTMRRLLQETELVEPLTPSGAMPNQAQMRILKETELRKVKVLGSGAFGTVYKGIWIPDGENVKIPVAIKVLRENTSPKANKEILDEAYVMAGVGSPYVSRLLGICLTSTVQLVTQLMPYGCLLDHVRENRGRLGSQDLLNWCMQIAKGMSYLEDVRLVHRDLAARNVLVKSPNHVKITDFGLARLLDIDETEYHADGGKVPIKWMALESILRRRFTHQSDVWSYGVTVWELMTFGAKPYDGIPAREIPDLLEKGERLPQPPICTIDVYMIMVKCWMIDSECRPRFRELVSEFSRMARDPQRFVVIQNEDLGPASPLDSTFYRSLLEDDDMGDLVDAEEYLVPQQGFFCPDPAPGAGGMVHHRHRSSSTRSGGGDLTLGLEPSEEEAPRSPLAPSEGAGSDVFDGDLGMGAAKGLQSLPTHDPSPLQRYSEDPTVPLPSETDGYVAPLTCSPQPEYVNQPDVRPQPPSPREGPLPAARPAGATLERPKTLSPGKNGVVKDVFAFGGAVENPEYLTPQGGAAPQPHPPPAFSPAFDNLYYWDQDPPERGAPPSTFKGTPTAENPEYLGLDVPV
pIC50: −log10 of the molar value.

Molecule smiles: O=C(NCCO)C1=Cc2c(ncnc2Nc2ccc(Oc3cccc4sccc34)c(Cl)c2)NCC1
pIC50: 7.62

Molecule smiles: COC(=O)C1=Cc2c(ncnc2Nc2ccc(Oc3cccc(C(F)(F)F)c3)c(Cl)c2)NCC1
pIC50: 7.00

Molecule smiles: O=C(NCCO)C1=Cc2c(ncnc2Nc2ccc(Oc3cccc(C(F)(F)F)c3)c(Cl)c2)NCC1
pIC50: 7.54

* * *

# Target: Dual specificity mitogen-activated protein kinase kinase 5 (Homo sapiens, UniProt Q13163)
# Sequence (Q13163 whole entry): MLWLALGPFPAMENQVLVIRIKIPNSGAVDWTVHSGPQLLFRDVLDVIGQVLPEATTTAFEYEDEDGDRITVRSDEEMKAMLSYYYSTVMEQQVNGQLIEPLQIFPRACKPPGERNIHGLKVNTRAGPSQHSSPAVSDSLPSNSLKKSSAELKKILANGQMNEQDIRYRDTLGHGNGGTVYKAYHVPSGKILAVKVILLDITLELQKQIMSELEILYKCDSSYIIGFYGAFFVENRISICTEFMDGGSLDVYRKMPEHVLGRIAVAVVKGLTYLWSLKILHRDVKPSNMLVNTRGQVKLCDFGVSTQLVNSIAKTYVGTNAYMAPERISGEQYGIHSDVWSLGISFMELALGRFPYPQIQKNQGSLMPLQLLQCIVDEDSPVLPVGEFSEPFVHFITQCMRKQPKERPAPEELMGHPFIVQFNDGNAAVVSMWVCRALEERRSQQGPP
# Assay name: Inhibition of N-terminal FLAG-tagged MEK5 (unknown origin) expressed in baculovirus expression system incubated for 5 mins prior to [gamma-33P]ATP addition measured after 30 mins by scintillation counting analysis
pIC50: −log10 of the molar value.

Molecule smiles: O=C(NCCO)C1=Cc2c(ncnc2Nc2ccc(Oc3cccc4sccc34)c(Cl)c2)NCC1
pIC50: 6.06

* * *

# Target: Tyrosine-protein kinase Lyn (Homo sapiens, UniProt P07948)
# Assay name: Inhibition of LYNA (unknown origin) incubated for 5 mins prior to ATP addition measured after 10 mins by Alphascreen assay

Molecule smiles: O=C(NCCO)C1=Cc2c(ncnc2Nc2ccc(Oc3cccc4sccc34)c(Cl)c2)NCC1
U: µM
IC50: 9.8

* * *

# Target: UniProt:P22607
# Sequence (P22607 whole entry): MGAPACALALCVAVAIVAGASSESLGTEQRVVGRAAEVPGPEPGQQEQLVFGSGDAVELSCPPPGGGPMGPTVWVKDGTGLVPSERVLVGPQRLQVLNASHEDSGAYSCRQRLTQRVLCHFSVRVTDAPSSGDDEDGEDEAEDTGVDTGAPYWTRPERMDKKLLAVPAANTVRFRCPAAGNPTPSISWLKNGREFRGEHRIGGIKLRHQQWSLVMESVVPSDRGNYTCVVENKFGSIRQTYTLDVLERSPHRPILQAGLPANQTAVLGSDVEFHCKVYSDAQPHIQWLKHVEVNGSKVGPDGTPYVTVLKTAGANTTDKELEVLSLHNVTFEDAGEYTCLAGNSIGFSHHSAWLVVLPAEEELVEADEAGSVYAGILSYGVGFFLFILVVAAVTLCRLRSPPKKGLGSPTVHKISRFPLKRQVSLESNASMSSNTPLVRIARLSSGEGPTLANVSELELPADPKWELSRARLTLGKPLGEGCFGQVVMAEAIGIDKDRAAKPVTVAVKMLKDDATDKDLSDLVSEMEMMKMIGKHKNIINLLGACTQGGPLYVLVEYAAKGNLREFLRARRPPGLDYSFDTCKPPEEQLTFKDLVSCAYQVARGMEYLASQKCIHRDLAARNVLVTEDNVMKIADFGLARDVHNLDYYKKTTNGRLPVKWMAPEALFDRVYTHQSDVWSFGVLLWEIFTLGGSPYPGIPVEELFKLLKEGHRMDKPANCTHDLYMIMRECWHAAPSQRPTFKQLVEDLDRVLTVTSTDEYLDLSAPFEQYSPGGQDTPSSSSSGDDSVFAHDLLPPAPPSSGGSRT
# Assay name: Inhibition of FGFR3 (unknown origin) incubated for 5 mins prior to ATP addition measured after 10 mins by Alphascreen assay
Reported metric: IC50

Molecule smiles: O=C(NCCO)C1=Cc2c(ncnc2Nc2ccc(Oc3cccc4sccc34)c(Cl)c2)NCC1
Reported metric: IC50
Recorded measurement: > 10 µM

* * *

# Target: Mast/stem cell growth factor receptor Kit (Homo sapiens)
# Sequence (P10721 whole entry): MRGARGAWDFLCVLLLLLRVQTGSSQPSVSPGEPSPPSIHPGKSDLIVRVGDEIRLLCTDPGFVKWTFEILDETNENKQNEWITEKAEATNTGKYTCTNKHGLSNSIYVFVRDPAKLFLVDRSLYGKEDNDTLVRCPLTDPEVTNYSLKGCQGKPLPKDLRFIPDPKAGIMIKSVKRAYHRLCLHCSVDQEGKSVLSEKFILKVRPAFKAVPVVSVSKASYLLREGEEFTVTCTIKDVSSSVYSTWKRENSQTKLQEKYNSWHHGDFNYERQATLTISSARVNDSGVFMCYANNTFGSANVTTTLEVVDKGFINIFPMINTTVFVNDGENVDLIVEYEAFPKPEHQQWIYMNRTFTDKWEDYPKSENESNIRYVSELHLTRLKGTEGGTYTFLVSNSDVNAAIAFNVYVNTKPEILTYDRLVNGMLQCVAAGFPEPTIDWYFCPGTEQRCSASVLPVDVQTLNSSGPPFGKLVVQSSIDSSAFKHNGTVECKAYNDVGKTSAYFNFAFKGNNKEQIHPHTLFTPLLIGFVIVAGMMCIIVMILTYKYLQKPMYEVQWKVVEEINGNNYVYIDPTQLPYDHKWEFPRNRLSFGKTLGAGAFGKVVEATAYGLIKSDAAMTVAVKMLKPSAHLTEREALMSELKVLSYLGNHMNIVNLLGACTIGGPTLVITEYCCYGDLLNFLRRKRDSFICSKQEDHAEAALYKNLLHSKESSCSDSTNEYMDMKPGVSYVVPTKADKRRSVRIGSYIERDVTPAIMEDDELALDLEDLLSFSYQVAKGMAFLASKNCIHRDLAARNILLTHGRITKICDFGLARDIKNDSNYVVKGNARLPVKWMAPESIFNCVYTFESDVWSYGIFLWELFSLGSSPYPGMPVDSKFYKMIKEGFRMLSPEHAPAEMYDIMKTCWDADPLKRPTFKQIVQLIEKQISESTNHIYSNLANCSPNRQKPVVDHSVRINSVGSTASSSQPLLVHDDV

Molecule smiles: O=C(NCCO)C1=Cc2c(ncnc2Nc2ccc(Oc3cccc4sccc34)c(Cl)c2)NCC1
IC50: > 10 µM

* * *

# Target: Mitogen-activated protein kinase 8 (Homo sapiens, UniProt P45983)
# Assay name: Inhibition of N-terminal FLAG-tagged JNK1 (unknown origin) expressed in baculovirus expression system incubated for 5 mins prior to [gamma-33P]ATP addition measured after 60 mins by scintillation counting analysis

Molecule smiles: O=C(NCCO)C1=Cc2c(ncnc2Nc2ccc(Oc3cccc4sccc34)c(Cl)c2)NCC1
IC50: > 10 µM

* * *

# Target: Mitogen-activated protein kinase 14 (Homo sapiens, UniProt Q16539)
# Assay name: Inhibition of N-terminal FLAG-tagged p38alpha (unknown origin) expressed in baculovirus expression system incubated for 5 mins prior to [gamma-33P]ATP addition measured after 60 mins by scintillation counting analysis

Molecule smiles: O=C(NCCO)C1=Cc2c(ncnc2Nc2ccc(Oc3cccc4sccc34)c(Cl)c2)NCC1
Target: Mitogen-activated protein kinase 14 (Homo sapiens, UniProt Q16539)
IC50, µM: 1.7

* * *

# Target: Angiopoietin-1 receptor (Homo sapiens)
pIC50: −log10 of the molar value.

Molecule smiles: O=C(NCCO)C1=Cc2c(ncnc2Nc2ccc(Oc3cccc4sccc34)c(Cl)c2)NCC1
pIC50: < 5.00

* * *

# Target: Tyrosine-protein kinase ZAP-70 (Homo sapiens)
# Sequence (P43403 whole entry): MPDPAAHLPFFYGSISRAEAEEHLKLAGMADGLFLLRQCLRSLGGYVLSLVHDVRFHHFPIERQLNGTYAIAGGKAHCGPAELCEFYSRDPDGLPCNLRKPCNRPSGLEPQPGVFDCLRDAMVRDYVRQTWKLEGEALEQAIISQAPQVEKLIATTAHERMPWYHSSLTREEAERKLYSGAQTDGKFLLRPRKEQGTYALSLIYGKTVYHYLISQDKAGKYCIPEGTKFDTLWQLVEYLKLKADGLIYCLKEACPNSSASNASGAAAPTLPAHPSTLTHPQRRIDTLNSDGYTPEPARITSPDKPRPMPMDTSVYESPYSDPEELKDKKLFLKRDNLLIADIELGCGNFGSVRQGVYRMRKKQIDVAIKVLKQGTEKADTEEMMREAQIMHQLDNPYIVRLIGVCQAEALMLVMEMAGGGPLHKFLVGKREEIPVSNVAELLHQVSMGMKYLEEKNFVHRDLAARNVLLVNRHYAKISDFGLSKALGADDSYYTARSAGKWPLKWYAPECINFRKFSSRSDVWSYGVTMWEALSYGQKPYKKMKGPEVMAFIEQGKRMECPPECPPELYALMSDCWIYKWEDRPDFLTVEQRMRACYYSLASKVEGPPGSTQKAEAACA
pIC50: −log10 of the molar value.

Molecule smiles: O=C(NCCO)C1=Cc2c(ncnc2Nc2ccc(Oc3cccc4sccc34)c(Cl)c2)NCC1
pIC50: < 5.00
